Data origin: patent US20230374007A1

# System Name: human BRD4 (amino acid residues 42 to 169) (Homo sapiens, UniProt O60885)
# Construct: encoding amino acid residues 42 to 169 (Uniprot 060885) of human BRD4; hexahistidine (N, cleaved yes); TEV cleavage site (N, cleaved yes)
# Experiment Notes: BRD4 surface plasmon resonance (SPR) assay
# Condition Parameters: biotinylated BRD4, 25° C., read-out: BRD4 Affinity Kd
pKd: −log10 of the molar value.
Consider the following molecules and their measured pKd readings.

Smiles Structure: Cc1sc2c(c1C)C(c1ccc(Cl)cc1)=N[C@@H](CC(=O)NCCOCCOCCOCCOCCOCCOCCNC(=O)Cc1c[nH]c3cc(N4CCC(=O)NC4=O)ccc13)c1nnc(C)n1-2
pKd: 7.52
--
Smiles Structure: Cc1sc2c(c1C)C(c1ccc(Cl)cc1)=N[C@@H](CC(=O)NCCOCCOCCNC(=O)Cc1c[nH]c3cc(N4CCC(=O)NC4=O)ccc13)c1nnc(C)n1-2
pKd: 7.72
--
Smiles Structure: Cc1sc2c(c1C)C(c1ccc(Cl)cc1)=N[C@@H](CC(=O)NCCNC(=O)Cc1c[nH]c3cc(N4CCC(=O)NC4=O)ccc13)c1nnc(C)n1-2
pKd: 7.89
